The entries below are paired with their reported ILS at 100 mg/kg.
System: P388
test-description: In vivo antitumor activity against P388/0 (wild) leukemia in mice measured by increase in life span after 100 mg/kg compound administration
Type: functional
assay-context: Mus musculus
Use % as the unit, but write only the number.

{"compound": "CS(=O)(=O)CCOP(=O)(NCCCl)NCCCl", "ILS at 100 mg/kg / %": 33}

Asked: Report ILS at 100 mg/kg from P388 testing of O=P(O)(NCCCl)NCCCl [PALIFOSFAMIDE]
Given back: 92

###

System: P388/CPA
test-description: In vivo antitumor activity against P388/CPA leukemia (resistant) in mice measured by increase in life span after 400 mg/kg compound administration
Type: functional
assay-context: Mus musculus
quantity-measured: ILS at 400 mg/kg (%)
Give the quantity in %, number only.

A selection of reference data follows.
{"compound": "CS(=O)(=O)CCOP(=O)(N(CCCl)CCCl)N(CCCl)CCCl", "measurement-target": "P388/CPA", "ILS at 400 mg/kg (%)": 60}
{"compound": "CS(=O)(=O)CCOP(=O)(NCCCl)NCCCl", "measurement-target": "P388/CPA", "ILS at 400 mg/kg (%)": 108}
{"compound": "O=P(NCCCl)(NCCCl)OCCS(=O)(=O)c1ccccc1", "measurement-target": "P388/CPA", "ILS at 400 mg/kg (%)": 60}
{"compound": "CS(=O)(=O)CC(OP(=O)(N(CCCl)CCCl)N(CCCl)CCCl)c1ccccc1 (stereo unspecified)", "measurement-target": "P388/CPA", "ILS at 400 mg/kg (%)": 60}
{"compound": "Cc1ccc(S(=O)(=O)CCOP(=O)(NCCCl)NCCCl)cc1", "measurement-target": "P388/CPA", "ILS at 400 mg/kg (%)": 36}

// moving on: another record for ILS at 400 mg/kg
Asked: # return recorded ILS at 400 mg/kg for input Cc1ccc(S(=O)(=O)CCOP(N)(=O)N(CCCl)CCCl)cc1 (stereo unspecified)
Given back: 44
